Target: Acetylcholinesterase (Homo sapiens, UniProt P22303)
Sequence (P22303 whole entry): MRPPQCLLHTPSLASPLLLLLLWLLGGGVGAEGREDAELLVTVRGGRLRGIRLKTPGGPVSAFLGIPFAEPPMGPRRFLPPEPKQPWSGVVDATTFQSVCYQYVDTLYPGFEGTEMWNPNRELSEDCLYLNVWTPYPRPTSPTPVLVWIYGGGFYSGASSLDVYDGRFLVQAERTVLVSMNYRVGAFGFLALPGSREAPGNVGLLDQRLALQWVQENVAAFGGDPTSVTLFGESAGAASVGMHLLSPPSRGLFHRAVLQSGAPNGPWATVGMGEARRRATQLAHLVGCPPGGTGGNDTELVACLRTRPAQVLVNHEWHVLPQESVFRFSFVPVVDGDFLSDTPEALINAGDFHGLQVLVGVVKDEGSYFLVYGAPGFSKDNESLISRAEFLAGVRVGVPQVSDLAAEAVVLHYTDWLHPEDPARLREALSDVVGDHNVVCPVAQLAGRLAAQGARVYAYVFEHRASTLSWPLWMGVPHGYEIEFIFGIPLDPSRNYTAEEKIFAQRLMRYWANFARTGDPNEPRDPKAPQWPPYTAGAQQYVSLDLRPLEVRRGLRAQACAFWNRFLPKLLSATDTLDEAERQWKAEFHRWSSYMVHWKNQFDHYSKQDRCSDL
Experiment: Inhibition of recombinant human AChE using acetylthiocholine iodide as substrate preincubated for 5 mins before substrate addition by Ellman's method
pIC50: −log10 of the molar value.
Quick rule for you: pIC50 at 5 or higher means MET, lower means NOT MET.

{"columns": ["COMPOUND_STRUCTURE_STRING", "ASSIGNED_CLASS"],
 "data": [
  ["CC(C)N(CCOc1ccc(-c2nc3ccc(Cl)cc3[nH]2)cc1)C(C)C", "MET"],
  ["c1ccc2[nH]c(-c3ccc(OCCN4CCCC4)cc3)nc2c1", "MET"],
  ["CCN(CC)CCOc1ccc(-c2nc3ccc(C)cc3[nH]2)cc1", "NOT MET"],
  ["Cc1ccc2[nH]c(-c3ccc(OCCN4CCCCC4)cc3)nc2c1", "MET"],
  ["CC(C)N(CCOc1ccc(-c2nc3ccccc3[nH]2)cc1)C(C)C", "NOT MET"],
  ["Clc1ccc2[nH]c(-c3ccc(OCCN4CCCC4)cc3)nc2c1", "MET"],
  ["Oc1ccc(-c2nc3ccccc3[nH]2)cc1", "NOT MET"],
  ["Cc1ccc2[nH]c(-c3ccc(OCCN4CCCC4)cc3)nc2c1", "MET"]
]}

---

Molecular target: Acetylcholinesterase (Homo sapiens, UniProt P22303)
Test: Inhibition of recombinant human AChE using acetylthiocholine iodide as substrate preincubated for 5 mins before substrate addition by Ellman's method
# note: exactly 10 µM is not below, so it is not met; use met for IC50 strictly under it

{"columns": ["COMPOUND_STRUCTURE_STRING", "ASSIGNED_CLASS"],
 "data": [
  ["CN(C)CCOc1ccc(-c2nc3ccc(Cl)cc3[nH]2)cc1", "met"],
  ["Cc1ccc2[nH]c(-c3ccc(OCCN4CCOCC4)cc3)nc2c1", "not met"],
  ["Cc1ccc2[nH]c(-c3ccc(OCCN(C)C)cc3)nc2c1", "not met"],
  ["CCN(CC)CCOc1ccc(-c2nc3cc(Cl)ccc3[nH]2)cc1", "met"]
]}
